# Dmax values compiled below
- TARGET_OF_ASSAY: SMARCA2 (Homo sapiens)
- TEST_SUMMARY: HiBiT assay for protein degradation, Hela SMARCA2-HiBiT cells (A series)
- Format: cell-based
- Parameters: Hela cells were genetically modified via CRISPR/Cas9 to fuse HiBiT to the carboxy terminus of SMARCA2; host or cells: HeLa (CRISPR/Cas9 HiBiT knock-in)
- STATED_CONDITIONS: Hela SMARCA2-HiBiT cells, 24 hours treatment; read-out: SMARC A2 Hela HiBit Dmax (%)

| SMILES_DATA | Dmax |
| --- | --- |
| Cc1ncsc1-c1ccc([C@H](C)NC(=O)[C@@H]2C[C@@H](O)CN2C(=O)[C@@H](n2cc(CCCCCN3CCC(c4ccc5c(c4)C4(CCCCC4)c4nc(=O)c6c(Br)cccc6n4-5)CC3)nn2)C(C)(C)C)cc1 | > 90% |
| COCCOCCOCCOC[C@H](NC(=O)[C@@H]1C[C@@H](O)CN1C(=O)[C@@H](n1cc([C@H]2CC[C@H](CN3CCC(c4ccc5c(c4)-n4c(nc(=O)c6c(Cl)cccc64)C5(C)C)CC3)CC2)nn1)C(C)(C)C)c1ccc(-c2scnc2C)cc1 | > 90% |

----------
- TARGET_OF_ASSAY: UniProt:P51532
- Sequence (P51532 whole entry): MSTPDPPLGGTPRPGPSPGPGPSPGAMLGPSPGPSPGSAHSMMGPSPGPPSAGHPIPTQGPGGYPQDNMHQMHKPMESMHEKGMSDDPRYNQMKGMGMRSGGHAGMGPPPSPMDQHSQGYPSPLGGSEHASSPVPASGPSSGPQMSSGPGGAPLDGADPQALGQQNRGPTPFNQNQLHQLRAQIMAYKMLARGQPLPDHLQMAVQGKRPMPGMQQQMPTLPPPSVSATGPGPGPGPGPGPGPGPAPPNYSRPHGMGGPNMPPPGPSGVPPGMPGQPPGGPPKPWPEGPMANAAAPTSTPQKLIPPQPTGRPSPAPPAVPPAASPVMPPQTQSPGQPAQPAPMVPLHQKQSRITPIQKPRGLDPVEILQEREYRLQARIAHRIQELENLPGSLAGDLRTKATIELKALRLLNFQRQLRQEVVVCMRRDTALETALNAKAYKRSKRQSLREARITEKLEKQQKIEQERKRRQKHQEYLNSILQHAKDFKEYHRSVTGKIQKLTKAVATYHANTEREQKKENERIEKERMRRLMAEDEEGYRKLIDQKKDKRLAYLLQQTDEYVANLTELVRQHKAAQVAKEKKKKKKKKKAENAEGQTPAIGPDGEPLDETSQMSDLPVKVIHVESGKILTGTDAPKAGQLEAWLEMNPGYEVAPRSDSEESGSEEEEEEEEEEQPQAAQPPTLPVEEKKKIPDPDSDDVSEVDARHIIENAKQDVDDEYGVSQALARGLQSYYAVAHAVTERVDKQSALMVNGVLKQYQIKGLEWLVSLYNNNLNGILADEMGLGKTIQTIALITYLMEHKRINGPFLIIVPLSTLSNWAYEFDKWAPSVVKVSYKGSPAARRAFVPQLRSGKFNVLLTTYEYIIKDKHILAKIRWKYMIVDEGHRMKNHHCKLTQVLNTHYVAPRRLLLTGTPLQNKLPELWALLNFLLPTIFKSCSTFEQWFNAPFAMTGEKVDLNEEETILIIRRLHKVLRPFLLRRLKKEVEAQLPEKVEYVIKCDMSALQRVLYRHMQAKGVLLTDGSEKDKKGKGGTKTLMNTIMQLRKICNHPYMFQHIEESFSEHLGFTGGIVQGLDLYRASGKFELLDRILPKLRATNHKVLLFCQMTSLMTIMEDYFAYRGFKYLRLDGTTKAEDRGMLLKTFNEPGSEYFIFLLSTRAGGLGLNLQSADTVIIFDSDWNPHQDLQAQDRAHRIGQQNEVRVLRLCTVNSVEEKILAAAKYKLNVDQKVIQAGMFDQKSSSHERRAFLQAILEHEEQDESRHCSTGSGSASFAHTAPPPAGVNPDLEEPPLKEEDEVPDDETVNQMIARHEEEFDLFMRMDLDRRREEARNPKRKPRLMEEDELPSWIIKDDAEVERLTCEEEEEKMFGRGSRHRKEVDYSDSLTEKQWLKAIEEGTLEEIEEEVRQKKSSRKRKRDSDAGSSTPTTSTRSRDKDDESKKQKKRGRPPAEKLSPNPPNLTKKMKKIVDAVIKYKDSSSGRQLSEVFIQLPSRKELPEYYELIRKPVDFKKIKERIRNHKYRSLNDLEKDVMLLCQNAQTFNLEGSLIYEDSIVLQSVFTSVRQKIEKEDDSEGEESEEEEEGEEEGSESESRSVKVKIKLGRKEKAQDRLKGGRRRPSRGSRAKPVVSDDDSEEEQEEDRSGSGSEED
- TEST_SUMMARY: HiBiT assay for protein degradation, Hela SMARCA4-HiBiT cells (A series)
- Assay type: cell-based
- Design: fuse HiBiT to the carboxy terminus of SMARCA2 (Promega CS302365) or SMARCA4 (Promega CS3023225); host or cells: HeLa (CRISPR/Cas9 HiBiT knock-in)
- STATED_CONDITIONS: Hela SMARCA4-HiBiT cells, 24 hours treatment; read-out: SMARC A4 Hela HiBit Dmax

| SMILES_DATA | Dmax |
| --- | --- |
| Cc1ncsc1-c1ccc([C@H](CN2CCOCC2)NC(=O)[C@@H]2C[C@@H](O)CN2C(=O)[C@H](C2CCCCC2)n2cc([C@H]3CC[C@H](CN4CCC[C@H](c5ccc6c(c5)-n5c(nc(=O)c7c(Cl)cccc75)C65CCCCC5)C4)CC3)nn2)cc1 | < 50% |
| CC(C)(C)[C@@H](C(=O)N1C[C@H](O)C[C@H]1C(=O)N[C@@H](CN1CCOCC1)c1ccc(-c2ccccc2)cc1)n1cc([C@H]2CC[C@H](CN3CCC(c4ccc5c(c4)-n4c(nc(=O)c6c(Cl)cccc64)C54CCCCC4)CC3)CC2)nn1 | 50 to 69% |
| Cc1ncsc1-c1ccc([C@H](CO)NC(=O)[C@@H]2C[C@@H](O)CN2C(=O)[C@H](C2CCCCC2)n2cc([C@H]3CC[C@H](CN4CCC(c5ccc6c(c5)-n5c(nc(=O)c7c(Cl)cccc75)C65CCCCC5)CC4)CC3)nn2)cc1 | 50 to 69% |
| Cc1ncsc1-c1ccc([C@H](CN2CCC3(COC3)C2)NC(=O)[C@@H]2C[C@@H](O)CN2C(=O)[C@@H](n2cc([C@H]3CC[C@H](CN4CCC(c5ccc6c(c5)-n5c(nc(=O)c7c(Cl)cccc75)C65CCCCC5)CC4)CC3)nn2)C(C)(C)C)cc1 | 50 to 69% |

----------
- TARGET_OF_ASSAY: SMARCA2 (Homo sapiens, UniProt P51531)
- Sequence (P51531 whole entry): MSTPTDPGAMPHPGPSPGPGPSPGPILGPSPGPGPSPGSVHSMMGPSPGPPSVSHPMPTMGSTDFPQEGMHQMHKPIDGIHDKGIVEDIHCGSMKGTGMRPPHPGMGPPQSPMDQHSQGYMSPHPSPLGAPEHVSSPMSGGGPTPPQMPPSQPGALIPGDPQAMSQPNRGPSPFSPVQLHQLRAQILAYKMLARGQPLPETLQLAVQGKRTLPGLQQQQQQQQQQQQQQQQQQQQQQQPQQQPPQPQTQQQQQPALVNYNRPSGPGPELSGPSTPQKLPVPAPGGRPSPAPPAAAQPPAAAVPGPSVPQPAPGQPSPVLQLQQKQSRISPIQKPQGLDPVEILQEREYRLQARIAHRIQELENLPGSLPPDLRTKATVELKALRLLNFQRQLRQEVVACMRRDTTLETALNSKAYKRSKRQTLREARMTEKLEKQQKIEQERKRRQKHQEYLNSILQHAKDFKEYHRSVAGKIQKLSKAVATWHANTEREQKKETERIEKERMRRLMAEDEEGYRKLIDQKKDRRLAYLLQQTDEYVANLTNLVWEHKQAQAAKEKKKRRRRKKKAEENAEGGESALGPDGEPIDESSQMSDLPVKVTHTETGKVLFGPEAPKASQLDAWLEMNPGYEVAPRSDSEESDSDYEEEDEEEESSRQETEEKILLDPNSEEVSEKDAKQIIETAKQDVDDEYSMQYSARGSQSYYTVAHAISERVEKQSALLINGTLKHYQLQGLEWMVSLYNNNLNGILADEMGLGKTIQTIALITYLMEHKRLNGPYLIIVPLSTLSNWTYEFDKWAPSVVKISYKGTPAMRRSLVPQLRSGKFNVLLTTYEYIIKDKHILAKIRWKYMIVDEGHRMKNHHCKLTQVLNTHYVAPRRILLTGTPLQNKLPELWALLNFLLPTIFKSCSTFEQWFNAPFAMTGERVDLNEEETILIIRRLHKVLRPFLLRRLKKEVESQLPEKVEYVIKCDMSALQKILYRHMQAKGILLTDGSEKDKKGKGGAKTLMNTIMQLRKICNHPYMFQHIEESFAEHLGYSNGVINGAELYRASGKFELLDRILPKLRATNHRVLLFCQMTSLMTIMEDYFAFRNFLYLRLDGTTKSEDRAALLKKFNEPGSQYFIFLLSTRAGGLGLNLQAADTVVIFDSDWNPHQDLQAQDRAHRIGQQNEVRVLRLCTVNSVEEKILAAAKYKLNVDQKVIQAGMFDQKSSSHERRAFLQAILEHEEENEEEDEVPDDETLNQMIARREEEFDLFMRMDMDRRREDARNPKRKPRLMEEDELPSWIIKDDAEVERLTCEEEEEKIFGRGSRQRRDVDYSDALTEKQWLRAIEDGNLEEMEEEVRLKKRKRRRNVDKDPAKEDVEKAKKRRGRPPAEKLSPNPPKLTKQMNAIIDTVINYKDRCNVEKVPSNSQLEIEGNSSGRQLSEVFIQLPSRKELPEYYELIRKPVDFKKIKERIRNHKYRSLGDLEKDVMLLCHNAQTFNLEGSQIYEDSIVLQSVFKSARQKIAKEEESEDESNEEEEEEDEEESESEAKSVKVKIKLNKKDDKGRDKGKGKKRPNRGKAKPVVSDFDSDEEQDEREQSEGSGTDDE
- TEST_SUMMARY: HiBiT assay for protein degradation, Hela SMARCA2-HiBiT cells (A series);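 as to SMARC A2 Hela HiBit Dmax (%): 24 h compound treatment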
- Assay type: cell-based
- Set-up: Hela cells were genetically modified via CRISPR/Cas9 to fuse HiBiT to the carboxy terminus of SMARCA2; host or cells: HeLa (CRISPR/Cas9 HiBiT knock-in)
- STATED_CONDITIONS: Hela SMARCA2-HiBiT cells, 24 hours treatment; read-out: SMARC A2 Hela HiBit Dmax (%)
The following compounds are shown together with reported Dmax values.

| COMPOUND | Dmax |
| --- | --- |
| Cc1ncsc1-c1ccc([C@H](CN2CC(C)(F)C2)NC(=O)[C@@H]2C[C@@H](O)CN2C(=O)[C@@H](n2cc([C@H]3CC[C@H](CN4CCC(c5ccc6c(c5)-n5c(nc(=O)c7c(Cl)cccc75)C6(C)C)CC4)CC3)nn2)C(C)(C)C)cc1 | > 90% |
| Cc1ncsc1-c1ccc([C@@H](C)NC(=O)[C@@H]2C[C@@H](O)CN2C(=O)C(c2cc(N3CCC(CN4CCC(c5ccc6c(c5)C5(CCCCC5)c5nc(=O)c7c(Br)cccc7n5-6)CC4)CC3)no2)C(C)C)cc1 (stereo partly shown) | 70 to 90% |
| COCCOCCOCCOCCOC[C@H](NC(=O)[C@@H]1C[C@@H](O)CN1C(=O)[C@@H](n1cc([C@H]2CC[C@H](CN3CCC(c4ccc5c(c4)-n4c(nc(=O)c6c(Cl)cccc64)C54CCCCC4)CC3)CC2)nn1)C(C)(C)C)c1ccc(-c2scnc2C)cc1 | > 90% |
| Cc1ncsc1-c1ccc([C@H](CCCCN2CCC(c3ccc4c(c3)C3(CCCC3)c3nc(=O)c5c(Cl)cccc5n3-4)CC2)NC(=O)[C@@H]2C[C@@H](O)CN2C(=O)[C@@H](NC(=O)C2(F)CC2)C(C)(C)C)cc1 | > 90% |

----------
A collection of compounds and their measured Dmax
- TARGET_OF_ASSAY: SMARCA2 (Homo sapiens, UniProt P51531)
- TEST_SUMMARY: HiBiT assay for protein degradation, Hela SMARCA2-HiBiT cells (A series);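 as to SMARC A2 Hela HiBit Dmax (%): 24 h compound treatment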
- Assay type: cell-based
- Design: Hela cells were genetically modified via CRISPR/Cas9 to fuse HiBiT to the carboxy terminus of SMARCA2; host or cells: HeLa (CRISPR/Cas9 HiBiT knock-in)
- STATED_CONDITIONS: Hela SMARCA2-HiBiT cells, 24 hours treatment; read-out: SMARC A2 Hela HiBit Dmax (%)

| SMILES_DATA | Dmax |
| --- | --- |
| Cc1ncsc1-c1ccc([C@H](CN(C)C)NC(=O)[C@@H]2C[C@@H](O)CN2C(=O)[C@@H](NC(=O)[C@H]2CC[C@H](CN3CCC(c4ccc5c(c4)C4(CCCCC4)c4nc(=O)c6c(Br)cccc6n4-5)CC3)CC2)C(C)(C)C)cc1 | > 90% |
| Cc1ncsc1-c1ccc([C@H](C)NC(=O)[C@@H]2C[C@@H](O)CN2C(=O)[C@@H](NC(=O)[C@H]2CC[C@H](CN3CC(N4CCC(c5ccc6c(c5)C5(CCCCC5)c5nc(=O)c7c(Cl)cccc7n5-6)CC4)C3)CC2)C(C)(C)C)cc1 | 70 to 90% |
| Cc1ncsc1-c1ccc([C@H](C)NC(=O)[C@@H]2C[C@@H](O)CN2C(=O)[C@@H](n2cc([C@H]3CC[C@H](CN4CCC(c5ncc6c(n5)-n5c(nc(=O)c7c(Br)cccc75)C65CCCCC5)CC4)CC3)nn2)C(C)(C)C)cc1 | < 50% |
| COC(=O)COC[C@H](NC(=O)[C@@H]1C[C@@H](O)CN1C(=O)[C@@H](n1cc([C@H]2CC[C@H](CN3CCC(c4ccc5c(c4)-n4c(nc(=O)c6c(Cl)cccc64)C54CCCCC4)CC3)CC2)nn1)C(C)(C)C)c1ccc(-c2scnc2C)cc1 | > 90% |
| Cc1ncsc1-c1ccc([C@H](CN2CC3(COC3)C2)NC(=O)[C@@H]2C[C@@H](O)CN2C(=O)[C@@H](n2cc([C@H]3CC[C@H](CN4CCC(c5ccc6c(c5)-n5c(nc(=O)c7c(Cl)cccc75)C65CCCCC5)CC4)CC3)nn2)C(C)(C)C)cc1 | > 90% |
| Cc1ncsc1-c1ccc([C@H](CN2CCOCC2)NC(=O)[C@@H]2C[C@@H](O)CN2C(=O)[C@@H](n2cc(C3CCN(CC4CCN(c5ccc6c(c5)-n5c(nc(=O)c7c(Cl)cccc75)C65CCCCC5)CC4)CC3)nn2)C(C)(C)C)cc1 | < 50% |
| Cc1ncsc1-c1ccc([C@H](C)NC(=O)[C@@H]2C[C@@H](O)CN2C(=O)[C@H](C2CCNCC2)n2cc([C@H]3CC[C@H](CN4CCC(c5ccc6c(c5)-n5c(nc(=O)c7c(Cl)cccc75)C65CCCCC5)CC4)CC3)nn2)cc1 | 70 to 90% |
| CC(C)(C)[C@@H](C(=O)N1C[C@H](O)C[C@H]1C(=O)N[C@@H](CN1CCOCC1)c1ccc(-c2cccnc2)cc1)n1cc([C@H]2CC[C@H](CN3CCC(c4ccc5c(c4)-n4c(nc(=O)c6c(Cl)cccc64)C54CCCCC4)CC3)CC2)nn1 | > 90% |

----------
DC50 listing for selected molecules.
- TARGET_OF_ASSAY: SMARCA2 (Homo sapiens)
- TEST_SUMMARY: HiBiT assay for protein degradation, Hela SMARCA2-HiBiT cells (A series)
- Assay type: cell-based
- Set-up: Hela cells were genetically modified via CRISPR/Cas9 to fuse HiBiT to the carboxy terminus of SMARCA2; host or cells: HeLa (CRISPR/Cas9 HiBiT knock-in)
- STATED_CONDITIONS: Hela SMARCA2-HiBiT cells, 24 hours treatment; read-out: SMARC A2 Hela HiBit DC50
EXPERIMENTAL_ENDPOINT: DC50

| MOLECULE | MEAS_VALUE |
| --- | --- |
| Cc1ncsc1-c1ccc([C@H](C)NC(=O)[C@@H]2C[C@@H](O)CN2C(=O)[C@@H](NC(=O)[C@H]2CC[C@H](CN3CC(N4CCC(c5ccc6c(c5)C5(CCCCC5)c5nc(=O)c7c(Cl)cccc7n5-6)CC4)C3)CC2)C(C)(C)C)cc1 [Compound A12] | 100 to 500 nM |
| Cc1ncsc1-c1ccc([C@H](CN2CCOCC2)NC(=O)[C@@H]2C[C@@H](O)CN2C(=O)[C@H](C(C)C)n2cc([C@H]3CC[C@H](CN4CCC(c5ccc6c(c5)-n5c(nc(=O)c7c(Cl)cccc75)C6(C)C)CC4)CC3)nn2)cc1 [Compound A104] | < 10 nM |
| Cc1ncsc1-c1ccc([C@H](CN2CCOCC2)NC(=O)[C@@H]2C[C@@H](O)CN2C(=O)[C@@H](n2cc([C@H]3CC[C@H](CN4CCC(c5ncc6c(n5)-n5c(nc(=O)c7c(Br)cccc75)C65CCCCC5)CC4)CC3)nn2)C(C)(C)C)cc1 [Compound A32] | > 1000 nM |
| COCCOCCOCCOC[C@H](NC(=O)[C@@H]1C[C@@H](O)CN1C(=O)[C@@H](n1cc([C@H]2CC[C@H](CN3CCC(c4ccc5c(c4)-n4c(nc(=O)c6c(Cl)cccc64)C5(C)C)CC3)CC2)nn1)C(C)(C)C)c1ccc(-c2scnc2C)cc1 [Compound A150] | < 10 nM |
